Experiment: protein stability index of a GFP-peptide fusion (GPS, HEK-293T) (PSI 1-6); higher = more stable;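 also: 24-mer peptide tiles fused after GFP, lentivirally expressed, FACS-sorted into six equal bins by GFP/DsRed ratio, decoded by Illumina sequencing, PSI is the read-weighted mean bin number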
Details: treatment: MLN4924 1 uM, 8 h; c terminus: a fixed tail appended
Catalogue of protein stability index readings, one per entry.
# output: bare number, no unit

{"Sequence": "EHPNVVRLMDVCATSRTDREIKVT [CDK4]", "Assay Readout": "protein stability index", "Readout Number": 4.14}
{"Sequence": "AQKQRLERALDATEVPFSITTDNL [TEKT4]", "Assay Readout": "protein stability index", "Readout Number": 4.77}
{"Sequence": "DLCLLYPPFMIALACLHVACVVQQ [CCNC]", "Assay Readout": "protein stability index", "Readout Number": 3.12}
{"Sequence": "WKIALLFVAFALCMFCLYSFMPLV [SLC35F2]", "Assay Readout": "protein stability index", "Readout Number": 2.69}
{"Sequence": "AGGSSSTPTPQALYPDLSCPEGLE [SPSB2]", "Assay Readout": "protein stability index", "Readout Number": 5.21}

Value of measured protein stability index for the entry AKYPHDVVNHLSCDEARNHYGGVV [SPACA9] : 3.58

Value of measured protein stability index for the entry PGNKGRGQRGNTESKTDGDDTETV [TCF25] : 5.54

Value of measured protein stability index for the entry PISPSTEVGGSGIGTPPSVLKRQR [MYBL2] : 4.97

---

Assay: protein stability index of a GFP-peptide fusion (GPS, HEK-293T) (PSI 1-6); higher = more stable
Details: treatment: DMSO; c terminus: a fixed tail appended
Response key: true means protein stability index >= 3; false means protein stability index < 3.

{"Sequence": "MDSAGQDINLNSPNKGLLSDSMTD [TPD52L2]", "Category": "true"}
{"Sequence": "LEDKLRLLAQARDEAQGACLQQKQ [LRRC45]", "Category": "true"}
{"Sequence": "FTEAMTHFPASPFWSVMFFLMLIN [SLC6A17]", "Category": "false"}
{"Sequence": "ETENIIAANHWVLPAAEFHGLWDS [TRIP13]", "Category": "true"}
{"Sequence": "WFSLASVIFLLLFAPFIVYYFIMA [DHCR7]", "Category": "false"}

query: # check: protein stability index of CANFGDQGITMGCWDMYRHDIDCQ [LOXL2] is greater than or equal to 3
result: false

query: # check: protein stability index of ADESVLWQLFGPFGAVTNVKVIRD [ELAVL3] is greater than or equal to 3
result: false

query: # check: protein stability index of GGAGKEGVRVNNRFELINIDDLED [TCF25] is greater than or equal to 3
result: true

query: # check: protein stability index of VLSDINLKKGESECQYYIDKLEYL [NET1] is greater than or equal to 3
result: false

query: # check: protein stability index of PLDILAQPLEASNPALEGLTQPLQ [DNAAF3] is greater than or equal to 3
result: true

query: # check: protein stability index of MDVTSRCTLGDPNKLPEGVPQPAR [KLHL20] is greater than or equal to 3
result: true

query: # check: protein stability index of PDSVPSLQNMGLLLDKLAKENQDI [PBXIP1] is greater than or equal to 3
result: true

query: # check: protein stability index of STQMFQTKRCFRLAPTFSNLLLQP [SMG5] is greater than or equal to 3
result: false

query: # check: protein stability index of AYYRGAVGALLVYDIAKHLTYENV [RAB11A] is greater than or equal to 3
result: true

query: # check: protein stability index of LRDIRAQYESIAAKNLQEAEEWYK [PRPH] is greater than or equal to 3
result: true

query: # check: protein stability index of VTLRQVLAAKERHCGELKRRLGLS [TPD52L2] is greater than or equal to 3
result: false

query: # check: protein stability index of IKEQLIQEGLLDRCVSFQARFAEK [HDAC6] is greater than or equal to 3
result: false

query: # check: protein stability index of AQTELLCCLVKMESLEPDAQVLML [FANCE] is greater than or equal to 3
result: false

query: # check: protein stability index of SRRFEAVGWWALLALVTLLSFATR [POMT2] is greater than or equal to 3
result: false

query: # check: protein stability index of SSYFDSFQEAQIKRKARNEGRNRR [CDKL4] is greater than or equal to 3
result: true

query: # check: protein stability index of SHQCAHCEKTFNRKDHLKNHLQTH [PLAGL1] is greater than or equal to 3
result: true

query: # check: protein stability index of SLSFEDFLDLLSVFSDTATPDIKS [CIB1] is greater than or equal to 3
result: false

query: # check: protein stability index of EMEEELRYAPLSFRNPMMSKLRNY [VTI1B] is greater than or equal to 3
result: false

query: # check: protein stability index of EEREEGPPRIPQADQWKSSNKSLV [RHOBTB1] is greater than or equal to 3
result: true

---

Test: protein stability index of a GFP-peptide fusion (GPS, HEK-293T) (PSI 1-6); higher = more stable
Conditions: treatment: MLN4924 1 uM, 8 h; c terminus: a fixed tail appended
Response key: t means protein stability index >= 4; f means protein stability index < 4.

Here are 5 sequences together with their reported answers.
{"Sequence": "NNIKFKKSSILTRAGEQRKRSQSM [CLCN6]", "Category": "t"}
{"Sequence": "YLLHPAAFHGAPSHLPTRSPSFPE [TBX6]", "Category": "f"}
{"Sequence": "SEGDLKNAIRVHHALATRASDYSK [PSD2]", "Category": "t"}
{"Sequence": "FPSLHQSLPQNQCYMATTKSQTAC [EHMT1]", "Category": "f"}
{"Sequence": "EDQTEYLEERRVKEVVKKHSQFIG [HSP90AB1]", "Category": "t"}

Shift focus to the following entry.
query: # check: protein stability index of KNIVIADFVMSLTFPFKILGDSGL [P2RY14] is greater than or equal to 4
result: f

---

Assay: protein stability index of a GFP-peptide fusion (GPS, HEK-293T) (PSI 1-6); higher = more stable
Settings: treatment: DMSO; c terminus: a fixed tail appended
Assay Readout: protein stability index

In the examples that follow, each entry is paired with its recorded protein stability index.
{"Sequence": "QNKAQRQKDLIMKVENLTLKNHFQ [TAF7L]", "Assay Readout": "protein stability index", "Result": 3.08}
{"Sequence": "RAYGFRGPGPQLRRGWRPSSREDS [CHGA]", "Assay Readout": "protein stability index", "Result": 3.9}
{"Sequence": "CFALIPKAPKKDVIKMLVNDNKVL [EFHC1]", "Assay Readout": "protein stability index", "Result": 2.28}
{"Sequence": "MATFPCQLCGKTFLTLEKFTIHNY [PLAGL1]", "Assay Readout": "protein stability index", "Result": 2.47}
{"Sequence": "SDFQIEPGFYATYESTLFEDQVPA [MIA2]", "Assay Readout": "protein stability index", "Result": 3.92}
{"Sequence": "ALGTSWTLPLQDRELGPEELDELQ [CABP4]", "Assay Readout": "protein stability index", "Result": 5.4}

Value of measured protein stability index for the entry IHQETVSKNGNGLKNTPRFKRRRV [PCMTD2] : 4.41

Value of measured protein stability index for the entry QDDLENPMLETASKLLLSGTADGA [ANKRD17] : 5.14

Value of measured protein stability index for the entry ISDFGRQQLLPPFPSLHQSLPQNQ [EHMT1] : 3.45

Value of measured protein stability index for the entry GMGLTGTMGMGMPNIAMTSGTVQP [CLINT1] : 3.84

Value of measured protein stability index for the entry HQPPQAGAGDVVLLQRELAQEDSL [LYSMD4] : 5.09

---

Assay: protein stability index of a GFP-peptide fusion (GPS, HEK-293T) (PSI 1-6); higher = more stable
Conditions: treatment: MLN4924 1 uM, 8 h; c terminus: a fixed tail appended
Assay Readout: protein stability index
# output: bare number, no unit

Value of measured protein stability index for the entry EEEGIETQYFAELLMTSGVVLCEG [CNOT7] : 3.39

Value of measured protein stability index for the entry EGLYEQAFQLLRRFVQAEGRRATL [TRADD] : 2.23

Value of measured protein stability index for the entry LQRVPSYDSFDSEDYPAALPNHKP [ETS1] : 4.53

Value of measured protein stability index for the entry AKQKLDFFIRTSDSFDKFDFCEPS [PCMTD2] : 3.02

Value of measured protein stability index for the entry NNYRLGGNPSTNSRVTASSGITIP [SMARCE1] : 3.54

---

Experiment: protein stability index of a GFP-peptide fusion (GPS, HEK-293T) (PSI 1-6); higher = more stable
Settings: treatment: DMSO; c terminus: a fixed tail appended
Response key: T means protein stability index >= 3; F means protein stability index < 3.

{"Sequence": "PRPDMAPELTPEEEQATKQFLEEI [PTPN9]", "Category": "T"}
{"Sequence": "ERQLKVMASDHREALLDRESENAS [LRRC45]", "Category": "T"}
{"Sequence": "RMGSSESTDSGFCLDSPGPLDSKE [CDC25A]", "Category": "T"}

query: # check: protein stability index of RGSDLKVLEVTEESIDFDQGELAD [FBXO33] is greater than or equal to 3
result: T

query: # check: protein stability index of PMLWNPSGTPKRYSLELGKAIKQK [C22orf31] is greater than or equal to 3
result: T

Data provenance is the supplement of paper PMC10567573.
